Ref: patent US9328158B2

Biological target: 1C4F9 mAb
Assay: Inhibition ELISA of 1C4F9 mAb binding to adsorbed LPS
Set-up: species or system mouse
Details: Concentration of the oligosaccharide or LPS required for 50% inhibition; purified 1C4F9
Protocol: Studies of the specificity of the glucan-specific antibody were carried out using a series of linear oligosaccharides consisting of consecutive α1,6-linked glucose residues Glc→[α(1→6)Glc]n=1-6 and selective purified H. pylori LPS. For inhibition ELISA, serial dilutions of linear α1,6-linked glucose-containing oligosaccharides from isomalto-series [Glcα1→(6Glcα1→)n=1-6] […]
REPORTED_PROPERTY: IC50 (µg/mL)

| MOLECULE | MEASUREMENT_TARGET | REPORTED_PROPERTY | REPORTED |
| --- | --- | --- | --- |
| OCC1OC(OCC2OC(OCC3OC(OCC4OC(OCC5OC(OCC6OC(O)C(O)C(O)C6O)C(O)C(O)C5O)C(O)C(O)C4O)C(O)C(O)C3O)C(O)C(O)C2O)C(O)C(O)C1O (centres unmarked) [Isomaltohexaose] | 1C4F9 mAb | IC50 | 290 |
| OCC1OC(OCC2OC(OCC3OC(OCC4OC(OCC5OC(O)C(O)C(O)C5O)C(O)C(O)C4O)C(O)C(O)C3O)C(O)C(O)C2O)C(O)C(O)C1O (centres unmarked) [Isomaltopentaose] | 1C4F9 mAb | IC50 | 460 |
| OCC1OC(OCC2OC(OCC3OC(OCC4OC(OCC5OC(OCC6OC(OCC7OC(O)C(O)C(O)C7O)C(O)C(O)C6O)C(O)C(O)C5O)C(O)C(O)C4O)C(O)C(O)C3O)C(O)C(O)C2O)C(O)C(O)C1O (centres unmarked) [Isomaltoheptaose] | 1C4F9 mAb | IC50 | 210 |
